Data credit: patent US12281162

SYSTEM_TESTED: T1, human G-protein-coupled receptor family C group 5 member D (GPRC5D) (human, UniProt Q9NZD1 1-345)
T1 construct: whole, on cells; also called human GPRC5D protein
PROTOCOL_SUMMARY: FACS, NCI-H929 cells
PROPERTY_NAME: Bottom
A bare number is all that is needed in reply.

In the examples that follow, each entry is paired with its recorded Bottom.
[[record]]
binder = "58-H1L1 (antibody, V domains shown, humanized 58F9G10, VH v1 x VL v1) VH: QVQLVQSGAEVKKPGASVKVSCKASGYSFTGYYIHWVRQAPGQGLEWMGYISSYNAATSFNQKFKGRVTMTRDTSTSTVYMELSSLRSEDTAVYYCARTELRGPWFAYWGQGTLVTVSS VL: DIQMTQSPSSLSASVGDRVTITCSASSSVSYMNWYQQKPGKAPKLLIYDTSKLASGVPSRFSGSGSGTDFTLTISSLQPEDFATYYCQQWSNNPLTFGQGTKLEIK"
observed = 281

[[record]]
binder = "6-H3L3 (antibody, V domains shown, humanized 6G10D9, VH v3 x VL v3) VH: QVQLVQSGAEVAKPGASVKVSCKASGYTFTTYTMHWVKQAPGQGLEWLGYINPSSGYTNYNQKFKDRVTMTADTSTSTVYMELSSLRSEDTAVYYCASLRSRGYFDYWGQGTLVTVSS VL: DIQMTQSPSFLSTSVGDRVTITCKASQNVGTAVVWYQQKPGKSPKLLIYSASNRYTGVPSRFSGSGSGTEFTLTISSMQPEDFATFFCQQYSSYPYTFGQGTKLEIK"
observed = 130


Proceeding to the next binder to report its Bottom.
Request: For the binder shown here, 37-H1L1 (antibody, V domains shown, humanized 37B9C4, VH v1 x VL v1; also called 37B9C4 (H1L1)) VH: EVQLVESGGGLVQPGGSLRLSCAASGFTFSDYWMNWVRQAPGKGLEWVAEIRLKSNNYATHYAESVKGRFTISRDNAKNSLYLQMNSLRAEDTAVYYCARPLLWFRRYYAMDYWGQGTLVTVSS VL: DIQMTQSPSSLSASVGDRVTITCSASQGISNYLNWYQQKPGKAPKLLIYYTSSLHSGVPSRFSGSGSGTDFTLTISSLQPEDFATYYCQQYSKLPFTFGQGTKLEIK , give the reported Bottom.
Response: 342
